- testTarget: mGlu5 (Rattus norvegicus, UniProt P31424)
- Sequence (P31424 21-1203): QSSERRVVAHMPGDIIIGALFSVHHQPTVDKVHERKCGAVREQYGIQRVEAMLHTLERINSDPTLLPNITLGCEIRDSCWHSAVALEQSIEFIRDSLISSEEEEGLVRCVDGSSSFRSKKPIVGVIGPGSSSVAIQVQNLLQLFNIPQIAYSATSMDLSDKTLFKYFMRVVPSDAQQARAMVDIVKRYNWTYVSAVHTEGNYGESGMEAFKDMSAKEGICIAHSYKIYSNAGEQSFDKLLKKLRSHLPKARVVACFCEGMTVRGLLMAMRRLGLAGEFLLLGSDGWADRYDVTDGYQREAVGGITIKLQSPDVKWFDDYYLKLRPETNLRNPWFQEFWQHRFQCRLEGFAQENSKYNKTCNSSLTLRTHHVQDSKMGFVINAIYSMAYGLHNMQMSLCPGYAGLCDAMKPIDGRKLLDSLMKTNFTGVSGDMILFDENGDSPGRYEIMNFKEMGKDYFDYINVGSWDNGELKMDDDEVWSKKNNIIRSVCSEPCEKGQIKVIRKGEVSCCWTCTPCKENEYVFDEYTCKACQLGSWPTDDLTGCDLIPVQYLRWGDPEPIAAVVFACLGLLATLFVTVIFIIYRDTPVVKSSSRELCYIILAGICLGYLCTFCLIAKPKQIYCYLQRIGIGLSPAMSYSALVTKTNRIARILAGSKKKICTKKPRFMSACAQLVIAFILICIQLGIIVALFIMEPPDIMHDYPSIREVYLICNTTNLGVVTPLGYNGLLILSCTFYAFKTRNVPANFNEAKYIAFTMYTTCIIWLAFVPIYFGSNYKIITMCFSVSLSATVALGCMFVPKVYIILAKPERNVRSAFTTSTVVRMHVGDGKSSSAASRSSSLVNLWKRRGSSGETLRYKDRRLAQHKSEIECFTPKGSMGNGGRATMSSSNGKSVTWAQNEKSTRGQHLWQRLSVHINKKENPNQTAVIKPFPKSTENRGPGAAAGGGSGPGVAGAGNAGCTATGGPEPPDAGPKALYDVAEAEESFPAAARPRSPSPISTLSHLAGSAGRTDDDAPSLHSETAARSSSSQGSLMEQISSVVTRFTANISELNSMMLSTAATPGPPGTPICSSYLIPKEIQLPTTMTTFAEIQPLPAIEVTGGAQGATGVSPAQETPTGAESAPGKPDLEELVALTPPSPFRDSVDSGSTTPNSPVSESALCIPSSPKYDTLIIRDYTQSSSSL
pIC50: −log10 of the molar value.
parameter: pIC50

[[record]]
smilesdata = "COc1cc(O)c(C(=O)c2ccccc2)cc1S(=O)(=O)O"
measurednumber = 6.19


###

- testTarget: UniProtKB P31424
parameter: Ki (nM)

[[record]]
compound = "COc1cc(O)c(C(=O)c2ccccc2)cc1S(=O)(=O)O [compound 4]"
parameter = "Ki"
displayunit = "nM"
measurednumber = 25.1

